Data origin: ChEMBL document CHEMBL4152347

The entries below are paired with their reported half-life at 1 h, 0.5 µM.
TEST_PROTOCOL: in vitro
CONDITIONS_USED: rat, liver microsomes
Description: Half life in rat liver microsomes at 0.5 uM after 1 hr in presence of NADPH by LC-MS/MS analysis

C=C(C)[C@@H]1CC[C@]2(NCCN3CCN(S(=O)(=O)C(C)C)CC3)CC[C@]3(C)[C@H](CC[C@@H]4[C@@]5(C)CC=C(c6ccc(C(=O)O)cc6)C(C)(C)[C@@H]5CC[C@]43C)[C@@H]12; > 2 h
C=C(C)[C@@H]1CC[C@]2(NC(=O)NCCN3CCS(=O)(=O)CC3)CC[C@]3(C)[C@H](CC[C@@H]4[C@@]5(C)CC=C(c6ccc(C(=O)O)cc6)C(C)(C)[C@@H]5CC[C@]43C)[C@@H]12; > 2 h

Moving on to another compound below.
[ask] Returns the measured half-life at 1 h, 0.5 µM for the input compound. Input: C=C(C)[C@@H]1CC[C@]2(NCCN3CCN(S(C)(=O)=O)CC3)CC[C@]3(C)[C@H](CC[C@@H]4[C@@]5(C)CC=C(c6ccc(C(=O)O)cc6)C(C)(C)[C@@H]5CC[C@]43C)[C@@H]12
[reply] > 2 h

* * *

TEST_PROTOCOL: Cmax in CD1 mouse at 5 mg/kg, po administered via gavage
Assay type: ADME, organism-based
Parameters: dose 5 mg/kg, route oral
CONDITIONS_USED: in vivo
OBSERVABLE: Cmax (nM)
Answer with a number only, understood to be in nM.

[ask] Returns the measured Cmax for the input compound. Input: C=C(C)[C@@H]1CC[C@]2(NCCN3CCS(=O)(=O)CC3)CC[C@]3(C)[C@H](CC[C@@H]4[C@@]5(C)CC=C(c6ccc(C(=O)O)cc6)C(C)(C)[C@@H]5CC[C@]43C)[C@@H]12
[reply] 2790

* * *

TEST_PROTOCOL: Oral bioavailability in cynomolgus monkey at 5 mg/kg administered via gavage
Format: ADME, organism-based, Macaca fascicularis
CONDITIONS_USED: in vivo
OBSERVABLE: bioavailability (%)
Answer with a number only, understood to be in %.

[ask] Returns the measured bioavailability for the input molecule. Input: C=C(C)[C@@H]1CC[C@]2(NCCN3CCS(=O)(=O)CC3)CC[C@]3(C)[C@H](CC[C@@H]4[C@@]5(C)CC=C(c6ccc(C(=O)O)cc6)C(C)(C)[C@@H]5CC[C@]43C)[C@@H]12
[reply] 4

* * *

TEST_PROTOCOL: AUC (0 to infinity) in Sprague-Dawley rat at 1 mg/kg, iv
Format: ADME, organism-based
Design: dose 1 mg/kg, time infinity, route intravenous
CONDITIONS_USED: in vivo
OBSERVABLE: AUC(0-inf) (µM·h)
Answer with a number only, understood to be in µM·h.

[ask] Returns the measured AUC(0-inf) for the input molecule. Input: C=C(C)[C@@H]1CC[C@]2(NCCN3CCS(=O)(=O)CC3)CC[C@]3(C)[C@H](CC[C@@H]4[C@@]5(C)CC=C(c6ccc(C(=O)O)cc6)C(C)(C)[C@@H]5CC[C@]43C)[C@@H]12
[reply] 11.1

* * *

TEST_PROTOCOL: in vivo
CONDITIONS_USED: Sprague-Dawley, rat, po, 5 mg/kg
Lab note: anything with AUC(0-t) at 6 h at or over 4 µM·h counts as y; the rest go in n.

C=C(C)[C@@H]1CC[C@]2(NCCO)CC[C@]3(C)[C@H](CC[C@@H]4[C@@]5(C)CC=C(c6ccc(C(=O)O)cc6)C(C)(C)[C@@H]5CC[C@]43C)[C@@H]12; y
C=C(C)[C@@H]1CC[C@]2(NCCN3CCS(=O)(=O)CC3)CC[C@]3(C)[C@H](CC[C@@H]4[C@@]5(C)CC=C(c6ccc(C(=O)O)cc6)C(C)(C)[C@@H]5CC[C@]43C)[C@@H]12; y
C=C(C)[C@@H]1CC[C@]2(C(=O)NCCCN3CCS(=O)(=O)CC3)CC[C@]3(C)[C@H](CC[C@@H]4[C@@]5(C)CC=C(c6ccc(C(=O)O)cc6)C(C)(C)[C@@H]5CC[C@]43C)[C@@H]12; n
C=C(C)[C@@H]1CC[C@]2(NC(=O)CN3CCS(=O)(=O)CC3)CC[C@]3(C)[C@H](CC[C@@H]4[C@@]5(C)CC=C(c6ccc(C(=O)O)cc6)C(C)(C)[C@@H]5CC[C@]43C)[C@@H]12; y

Alright, here's another molecule for you.
[ask] Does the reported AUC(0-t) at 6 h for C=C(C)[C@@H]1CC[C@]2(NCCCN3CCS(=O)(=O)CC3)CC[C@]3(C)[C@H](CC[C@@H]4[C@@]5(C)CC=C(c6ccc(C(=O)O)cc6)C(C)(C)[C@@H]5CC[C@]43C)[C@@H]12 fall at or above the 4 µM·h mark?
[reply] y

* * *

TEST_PROTOCOL: Oral bioavailability in beagle dog at 5 mg/kg administered via gavage as microsuspension pre-treated with 40 mg famotidine in capsule form 1 hr before compound dosing
Type: ADME, organism-based, Canis lupus familiaris
CONDITIONS_USED: in vivo
OBSERVABLE: bioavailability (%)
Answer with a number only, understood to be in %.

[ask] Returns the measured bioavailability for the input molecule. Input: C=C(C)[C@@H]1CC[C@]2(NCCN3CCS(=O)(=O)CC3)CC[C@]3(C)[C@H](CC[C@@H]4[C@@]5(C)CC=C(c6ccc(C(=O)O)cc6)C(C)(C)[C@@H]5CC[C@]43C)[C@@H]12
[reply] 26

* * *

Tested on: Human immunodeficiency virus 1
TEST_PROTOCOL: microbe, parasite or virus in culture
CONDITIONS_USED: Human immunodeficiency virus 1, MT2
Description: Antiviral activity against HIV1 expressing gag delta V370 mutant infected in human MT2 cells after 4 to 5 days by dual luciferase reporter gene assay
OBSERVABLE: EC50 (nM)
Answer with a number only, understood to be in nM.

Completed entries (count: 4):
C=C(C)[C@@H]1CC[C@]2(C(=O)NCCCN3CCS(=O)(=O)CC3)CC[C@]3(C)[C@H](CC[C@@H]4[C@@]5(C)CC=C(c6ccc(C(=O)O)cc6)C(C)(C)[C@@H]5CC[C@]43C)[C@@H]12; 42.8
C=C(C)[C@@H]1CC[C@]2(NCCN3CC4(C3)CN(S(C)(=O)=O)C4)CC[C@]3(C)[C@H](CC[C@@H]4[C@@]5(C)CC=C(c6ccc(C(=O)O)cc6)C(C)(C)[C@@H]5CC[C@]43C)[C@@H]12; 13.3
C=C(C)[C@@H]1CC[C@]2(NCCN3CCOCC3)CC[C@]3(C)[C@H](CC[C@@H]4[C@@]5(C)CC=C(c6ccc(C(=O)O)cc6)C(C)(C)[C@@H]5CC[C@]43C)[C@@H]12; 47.4
C=C(C)[C@@H]1CC[C@]2(NCCN3C[C@@H]4C[C@H]3CS4(=O)=O)CC[C@]3(C)[C@H](CC[C@@H]4[C@@]5(C)CC=C(c6ccc(C(=O)O)cc6)C(C)(C)[C@@H]5CC[C@]43C)[C@@H]12; 7.7

Moving on to another compound below.
[ask] Returns the measured EC50 for the input compound. Input: C=C(C)[C@@H]1CC[C@]2(NC(=O)CN3CCS(=O)(=O)CC3)CC[C@]3(C)[C@H](CC[C@@H]4[C@@]5(C)CC=C(c6ccc(C(=O)O)cc6)C(C)(C)[C@@H]5CC[C@]43C)[C@@H]12
[reply] 18.9

* * *

TEST_PROTOCOL: AUC (0 to infinity) in beagle dog at 5 mg/kg, po administered via gavage as microsuspension pre-treated with 40 mg famotidine in capsule form 1 hr before compound dosing
Assay type: ADME, organism-based, Canis lupus familiaris
Design: dose 5 mg/kg, time infinity, route oral
CONDITIONS_USED: in vivo
OBSERVABLE: AUC(0-inf) (µM·h)
Answer with a number only, understood to be in µM·h.

[ask] Returns the measured AUC(0-inf) for the input compound. Input: C=C(C)[C@@H]1CC[C@]2(NCCN3CCS(=O)(=O)CC3)CC[C@]3(C)[C@H](CC[C@@H]4[C@@]5(C)CC=C(c6ccc(C(=O)O)cc6)C(C)(C)[C@@H]5CC[C@]43C)[C@@H]12
[reply] 236

* * *

TEST_PROTOCOL: Oral bioavailability in beagle dog at 5 mg/kg administered via gavage as microsuspension pre-treated with 6 ug/kg, im pentagastrin 15 to 30 mins before compound dosing
Type: ADME, organism-based, Canis lupus familiaris
CONDITIONS_USED: in vivo
OBSERVABLE: bioavailability

[ask] Returns the measured bioavailability for the input compound. Input: C=C(C)[C@@H]1CC[C@]2(NCCN3CCS(=O)(=O)CC3)CC[C@]3(C)[C@H](CC[C@@H]4[C@@]5(C)CC=C(c6ccc(C(=O)O)cc6)C(C)(C)[C@@H]5CC[C@]43C)[C@@H]12
[reply] 26%

* * *

TEST_PROTOCOL: Protein binding in mouse serum at 53 nM after 1 hr by ultracentrifugation assay
Assay type: ADME, cell-free
CONDITIONS_USED: read-out: PB (converted)
OBSERVABLE: fraction unbound at 1 h, 0.053 µM

[ask] Returns the measured fraction unbound at 1 h, 0.053 µM for the input compound. Input: C=C(C)[C@@H]1CC[C@]2(NCCN3CCS(=O)(=O)CC3)CC[C@]3(C)[C@H](CC[C@@H]4[C@@]5(C)CC=C(c6ccc(C(=O)O)cc6)C(C)(C)[C@@H]5CC[C@]43C)[C@@H]12 [BMS-955176]
[reply] 0.106
